The measured values listed here are drawn from patent US20260297080A1.

# SYSTEM_UNDER_TEST: CDK2/Cyclin E1 (Homo sapiens)
# MEASUREMENT_NOTES: CDK2/Cyclin E1 Biochemical Assay (TR-FRET), 0.060 mM ATP
# CONDITIONS: 0.15 μM Rb (Ser780)-biotin substrate, pH7.0, 60 min preincubation, 120 min reaction, room temperature
# Procedure: CDK2/Cyclin E1 and CDK1/Cyclin B1 Biochemical Assays Compounds disclosed herein were tested for inhibition of CDK2/Cyclin E1 or CDK1/Cyclin B1 kinase in an assay based on the time-resolved fluorescence-resonance energy transfer (TR-FRET) methodology. […] Plates were incubated at room temperature for 60 minutes, and the TR-FRET signals (ex337 nm, em665 nm/620 nm) were recorded on a PHERAstar FSX plate reader (BMG Labtech). […]
pIC50: −log10 of the molar value.
Each entry gets Criterion not met if its pIC50 stays under 8, and Criterion met if its pIC50 is 8 or above.

Please check the record CC[C@H](C)NC(=O)O[C@H]1C[C@@H](c2cc(Nc3cc4c(cc3F)S(=O)(=O)NC4)n[nH]2)C1 and state if its pIC50 is at or above 8. Criterion not met

Please check the record CCCNC(=O)O[C@H]1CC[C@@H](c2cc(Nc3ccc4c(c3F)CS(=O)(=O)N4C3COC3)n[nH]2)C1 (single isomer, unassigned) [Example 260b] and state if its pIC50 is at or above 8. Criterion met

Please check the record O=C(NC1CCC(O)CC1)O[C@H]1CC[C@@H](c2cc(Nc3ccc4c(c3F)CNS4(=O)=O)n[nH]2)C1 (single isomer, unassigned) [Example 143] and state if its pIC50 is at or above 8. Criterion met

Please check the record CC1(NC(=O)O[C@H]2CC[C@@H](c3cc(Nc4ccc5c(c4)CS(=O)(=O)N5)n[nH]3)C2)CCOCC1 (relative stereo) and state if its pIC50 is at or above 8. Criterion met

Please check the record CCCNC(=O)O[C@H]1CC[C@@H](c2cc(Nc3ccc4c(c3F)CS(=O)(=O)N4C)n[nH]2)C1 (single isomer, unassigned) [Example 256a] and state if its pIC50 is at or above 8. Criterion met

Please check the record CCCNC(=O)O[C@H]1CC[C@@H](c2cc(Nc3ccc4c(c3Cl)CNS4(=O)=O)n[nH]2)C1 (single isomer, unassigned) [Example 39b] and state if its pIC50 is at or above 8. Criterion not met

* * *

What IC50 was measured for each of the following?
# SYSTEM_UNDER_TEST: CDK1/Cyclin B1 (Homo sapiens, UniProt P06493)
# Sequence (P06493 whole entry): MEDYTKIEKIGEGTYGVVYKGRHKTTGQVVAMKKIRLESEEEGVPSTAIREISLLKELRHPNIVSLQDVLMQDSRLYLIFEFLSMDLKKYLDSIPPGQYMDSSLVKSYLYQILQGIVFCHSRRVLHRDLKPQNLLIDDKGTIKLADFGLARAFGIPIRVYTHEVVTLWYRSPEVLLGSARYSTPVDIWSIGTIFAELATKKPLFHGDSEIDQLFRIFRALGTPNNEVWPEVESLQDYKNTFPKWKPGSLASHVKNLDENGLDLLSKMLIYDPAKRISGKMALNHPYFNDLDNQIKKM
# Sequence (P14635 whole entry partner): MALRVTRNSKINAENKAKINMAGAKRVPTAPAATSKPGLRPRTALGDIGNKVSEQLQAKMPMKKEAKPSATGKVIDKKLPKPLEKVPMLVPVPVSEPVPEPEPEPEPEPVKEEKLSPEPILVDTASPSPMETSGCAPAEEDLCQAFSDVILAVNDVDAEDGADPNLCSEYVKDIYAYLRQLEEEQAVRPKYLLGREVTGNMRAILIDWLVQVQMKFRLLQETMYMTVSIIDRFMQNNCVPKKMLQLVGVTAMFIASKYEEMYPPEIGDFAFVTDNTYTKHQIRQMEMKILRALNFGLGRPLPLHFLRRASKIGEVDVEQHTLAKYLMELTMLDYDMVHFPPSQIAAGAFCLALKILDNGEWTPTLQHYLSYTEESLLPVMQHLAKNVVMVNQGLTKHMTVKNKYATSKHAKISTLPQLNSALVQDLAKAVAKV
# MEASUREMENT_NOTES: CDK1/Cyclin B1 Biochemical Assay (TR-FRET), 0.015 mM ATP
# CONDITIONS: 0.15 μM Rb (Ser780)-biotin substrate, pH7.0, 60 min preincubation, 120 min reaction, room temperature
Just the number please, in µM, no unit attached.

Kindly indicate its recorded IC50. Item: CC(C)NC(=O)O[C@H]1CC[C@@H](c2cc(Nc3ccc4c(c3)NS(=O)(=O)C4)n[nH]2)C1 (stereo in doubt) [Example 303b] 0.028

Kindly indicate its recorded IC50. Item: CC(C)NC(=O)O[C@H]1CC[C@@H](c2cc(Nc3ccc4c(c3)CCNS4(=O)=O)n[nH]2)C1 (relative stereo) [Example 172] 0.014

Kindly indicate its recorded IC50. Item: CC(C)(O)CNC(=O)O[C@H]1CC[C@@H](c2cc(Nc3ccc4c(c3F)CNS4(=O)=O)n[nH]2)C1 (relative stereo) [Example 146] 0.323

Kindly indicate its recorded IC50. Item: CC1(NC(=O)O[C@H]2CC[C@@H](c3cc(Nc4ccc5c(c4F)CS(=O)(=O)N5C4COC4)n[nH]3)C2)CC1 (relative stereo) [Example 262] 0.033

Kindly indicate its recorded IC50. Item: CC(C)NC(=O)O[C@H]1CC[C@@H](c2cc(Nc3ccc4c(c3F)CN(CC(C)(C)O)S4(=O)=O)n[nH]2)C1 (relative stereo) [Example 76] 0.416

Kindly indicate its recorded IC50. Item: CC(C)NC(=O)O[C@H]1CC[C@@H](c2cc(Nc3ccc4c(c3)CS(=O)(=O)N4C(C)C)n[nH]2)C1 (relative stereo) [Example 202] 0.098
